test: Solubility in pH 6.5 buffer; format: physicochemical
Recorded Metric: solubility (µg/mL)

(A) COc1ccc(C[C@H](NC(=O)N2CCOCC2)C(=O)N[C@@H](Cc2c[nH]cn2)C(=O)N[C@H](CC2CCCCC2)[C@H](O)[C@H](O)CN=[N+]=[N-])cc1
(B) [N-]=[N+]=NC[C@@H](O)[C@@H](O)[C@@H](CC1CCCCC1)NC(=O)[C@H](Cc1c[nH]cn1)NC(=O)[C@H](Cc1ccccc1)NC(=O)C1CCOCC1
(C) CC(C)C(=O)N[C@@H](Cc1ccccc1)C(=O)N[C@@H](Cc1c[nH]cn1)C(=O)N[C@H](CC1CCCCC1)[C@H](O)[C@H](O)CN=[N+]=[N-]
(D) [N-]=[N+]=NC[C@@H](O)[C@@H](O)[C@@H](CC1CCCCC1)NC(=O)[C@H](Cc1cnc[nH]1)NC(=O)[C@H](Cc1ccccc1)NC(=O)N1CCOCC1
Order the 4 molecules from highest to lowest solubility. Sort the labels as requested; that list is your answer.
D, A, B, C
(D: 2600 µg/mL, A: 1000 µg/mL, B: 23 µg/mL, C: 13 µg/mL)

* * *

target: UniProt P00797; experiment: Inhibitory activity against purified human renal renin at pH 6.0
pIC50: −log10 of the molar value.
Recorded Metric: pIC50

(P) COc1ccc(C[C@H](NC(=O)C(C)C)C(=O)N[C@@H](Cc2cnc[nH]2)C(=O)N[C@H](CC2CCCCC2)[C@H](O)[C@H](O)CN=[N+]=[N-])cc1
(Q) CC(C)(C)OC(=O)N[C@@H](Cc1ccccc1)C(=O)N[C@@H](Cc1c[nH]cn1)C(=O)N[C@H](CC1CCCCC1)[C@H](O)[C@H](O)CN=[N+]=[N-]
(R) [N-]=[N+]=NC[C@@H](O)[C@@H](O)[C@@H](CC1CCCCC1)NC(=O)[C@H](Cc1cnc[nH]1)NC(=O)[C@H](Cc1ccccc1)NC(=O)N1CCOCC1
Highest to lowest pIC50: rank the entries shown above. To answer, arrange all of the labels according to the requested order.
Q, R, P
(Q: 9.40, R: 9.17, P: 8.70)

* * *

target: UniProt P00797; experiment: Inhibitory activity against human plasma renin at pH 7.4; type: cell-free
Recorded Metric: IC50 (nM)

Substance Smiles: [N-]=[N+]=NC[C@@H](O)[C@@H](O)[C@@H](CC1CCCCC1)NC(=O)[C@H](Cc1cnc[nH]1)NC(=O)[C@H](Cc1ccccc1)NC(=O)N1CCOCC1
Unit Tag: nM
IC50: 2.4

(A) COc1ccc(C[C@H](NC(=O)C(C)C)C(=O)N[C@@H](Cc2cnc[nH]2)C(=O)N[C@H](CC2CCCCC2)[C@H](O)[C@H](O)CN=[N+]=[N-])cc1
(B) COc1ccc(C[C@H](NC(=O)N2CCOCC2)C(=O)N[C@@H](Cc2c[nH]cn2)C(=O)N[C@H](CC2CCCCC2)[C@H](O)[C@H](O)CN=[N+]=[N-])cc1
Could you tell me which of A and B has the lower IC50 reading? To answer, give the label that identifies your chosen option.
A
(A: 10 nM, B: 20 nM)

* * *

biological target: Renin (Homo sapiens, UniProt P00797); test: Inhibitory activity against human plasma renin at pH 7.4; assay type: cell-free
Recorded Metric: IC50 (nM)

Substance Smiles: [N-]=[N+]=NC[C@@H](O)[C@@H](O)[C@@H](CC1CCCCC1)NC(=O)[C@H](Cc1c[nH]cn1)NC(=O)[C@H](Cc1ccccc1)NC(=O)C1CCOCC1
Number: 7.6

(a) CC(C)(C)OC(=O)N[C@@H](Cc1ccccc1)C(=O)N[C@@H](Cc1c[nH]cn1)C(=O)N[C@H](CC1CCCCC1)[C@H](O)[C@H](O)CN=[N+]=[N-]
(b) CC(C)C(=O)N[C@@H](Cc1ccccc1)C(=O)N[C@@H](Cc1c[nH]cn1)C(=O)N[C@H](CC1CCCCC1)[C@H](O)[C@H](O)CN=[N+]=[N-]
Sorting ascending by IC50, which comes first: a or b ? Refer to your chosen entry by its label in the reply.
b

* * *

Biological target: Renin (Homo sapiens, UniProt P00797)
Sequence (P00797 whole entry): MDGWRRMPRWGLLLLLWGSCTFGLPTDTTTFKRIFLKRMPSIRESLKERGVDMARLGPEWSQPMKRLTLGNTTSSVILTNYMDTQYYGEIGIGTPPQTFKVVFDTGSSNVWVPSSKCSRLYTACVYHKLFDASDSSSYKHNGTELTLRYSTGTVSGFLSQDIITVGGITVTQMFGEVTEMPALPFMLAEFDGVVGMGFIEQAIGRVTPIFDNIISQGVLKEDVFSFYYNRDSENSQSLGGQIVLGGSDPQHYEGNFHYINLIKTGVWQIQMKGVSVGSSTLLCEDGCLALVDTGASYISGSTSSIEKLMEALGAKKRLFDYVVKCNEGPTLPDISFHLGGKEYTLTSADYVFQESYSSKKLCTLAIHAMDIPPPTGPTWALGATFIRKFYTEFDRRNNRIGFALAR
Test: Inhibitory activity against purified human renal renin at pH 6.0
Recorded Metric: IC50 (nM)

(P) CC(C)(C)OC(=O)N[C@@H](Cc1ccccc1)C(=O)N[C@@H](Cc1c[nH]cn1)C(=O)N[C@H](CC1CCCCC1)[C@H](O)[C@@H](O)CN=[N+]=[N-]
(Q) CC(C)(C)OC(=O)N[C@@H](Cc1ccccc1)C(=O)N[C@@H](Cc1c[nH]cn1)C(=O)N[C@H](CC1CCCCC1)[C@H](O)[C@H](O)CN=[N+]=[N-]
(R) CC(C)(C)OC(=O)N[C@@H](Cc1ccccc1)C(=O)N[C@@H](Cc1cnc[nH]1)C(=O)N[C@H](CC1CCCCC1)[C@H](O)C(O)(CO)CN=[N+]=[N-] (stereo partly drawn)
// smallest IC50 at index 0, largest at the end Arrange the labels as the request states and list them.
Q, R, P
(Q: 0.4 nM, R: 4.8 nM, P: 26 nM)

* * *

biological target: Renin (Homo sapiens, UniProt P00797); experiment: Inhibitory activity against purified human renal renin at pH 6.0
Recorded Metric: IC50 (nM)

Example molecules with recorded IC50:
Substance Smiles: CC(C)(C)OC(=O)N[C@@H](Cc1ccccc1)C(=O)N[C@@H](Cc1c[nH]cn1)C(=O)N[C@H](CC1CCCCC1)[C@H](O)[C@H](CO)CN=[N+]=[N-]
Recorded Metric: IC50
Number: 10
//
Substance Smiles: CC(C)(C)OC(=O)N[C@@H](Cc1ccccc1)C(=O)N[C@@H](Cc1c[nH]cn1)C(=O)N[C@H](CC1CCCCC1)[C@H](O)C(=O)CN=[N+]=[N-]
Recorded Metric: IC50
Number: 5.4

(a) CC(C)(C)OC(=O)N[C@@H](Cc1ccccc1)C(=O)N[C@@H](Cc1c[nH]cn1)C(=O)N[C@H](CC1CCCCC1)[C@H](O)CCN=[N+]=[N-]
(b) C=C(CN=[N+]=[N-])[C@@H](O)[C@@H](CC1CCCCC1)NC(=O)[C@H](Cc1c[nH]cn1)NC(=O)[C@H](Cc1ccccc1)NC(=O)OC(C)(C)C
(c) CC(C)(C)OC(=O)N[C@@H](Cc1ccccc1)C(=O)N[C@@H](Cc1cnc[nH]1)C(=O)N[C@H](CC1CCCCC1)[C@H](O)CN=[N+]=[N-]
(d) CC(C)(C)OC(=O)N[C@@H](Cc1ccccc1)C(=O)N[C@@H](Cc1cnc[nH]1)C(=O)N[C@H](CC1CCCCC1)[C@H](O)[C@@H](CO)CN=[N+]=[N-]
Endpoint returns the given molecules ordered by ascending IC50. Return the labels ranked in the requested order, please.
c, a, b, d
